Catalogue of EC50 values
# TEST_SYSTEM: Estrogen receptor (Homo sapiens, UniProt Q92731+P03372)
# PROCEDURE_SUMMARY: Induction of pS2 mRNA expression in human MCF-7 mammary carcinoma cells
# Type: functional, cell-based
# MEASUREMENT_CONDITIONS: mcf7
Write it as a number; the unit nM goes unstated.

C[C@]12CC[C@@H]3c4cc(CCO)c(O)cc4CC[C@H]3[C@@H]1CC[C@@H]2O | 272
C[C@]12CC[C@@H]3c4cc(CO)c(O)cc4CC[C@H]3[C@@H]1CC[C@@H]2O | 10.3
C[C@]12CC[C@@H]3c4cc(O)c(O)cc4CC[C@H]3[C@@H]1CC[C@@H]2O | 504

Now look at this entry.
Ask: Could you share which EC50 value was measured for "C[C@]12CC[C@@H]3c4cc(CCCO)c(O)cc4CC[C@H]3[C@@H]1CC[C@@H]2O" ?
Reply: 495
